In this section, each of the compounds is paired with its reported IC50.
# Assay system: Human GO (Homo sapiens, UniProt Q9UJM8)
# Construct: purchased Novus Biologicals NBP1-72412
# Sequence (Q9UJM8 whole entry): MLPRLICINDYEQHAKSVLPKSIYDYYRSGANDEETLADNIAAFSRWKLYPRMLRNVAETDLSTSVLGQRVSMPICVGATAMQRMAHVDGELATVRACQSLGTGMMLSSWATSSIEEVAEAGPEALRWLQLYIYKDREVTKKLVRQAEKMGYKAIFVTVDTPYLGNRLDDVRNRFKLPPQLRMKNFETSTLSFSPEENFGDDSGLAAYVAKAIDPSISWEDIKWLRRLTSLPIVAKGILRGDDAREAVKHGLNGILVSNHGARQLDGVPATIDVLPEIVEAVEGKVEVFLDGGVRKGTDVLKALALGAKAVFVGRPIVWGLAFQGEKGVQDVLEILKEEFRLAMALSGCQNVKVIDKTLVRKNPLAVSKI
# Test details: GO enzymatic assay (coupled fluorescence/HRP assay, glycolate substrate)
# Type: biochemical

- Compound: "CC(=O)OCn1nnc(Oc2ccc(Cl)c(Cl)c2)c1C(=O)O"
  Observable: "IC50"
  Observed: "0.1 to 1 µM"
- Compound: "O=C(O)c1[nH]nnc1Oc1ccc(-c2ccc(Cl)cc2)cc1"
  Observable: "IC50"
  Observed: "< 0.1 µM"
- Compound: "CC(C)(C)C(=O)OCn1nnc(Oc2ccc(Cl)c(Cl)c2)c1C(=O)O"
  Observable: "IC50"
  Observed: "0.1 to 1 µM"
- Compound: "O=C(O)c1[nH]nnc1Oc1ccc(C2CCCCC2)cc1"
  Observable: "IC50"
  Observed: "< 0.1 µM"
- Compound: "O=C(O)c1[nH]nnc1Sc1ccc(Cl)c(Cl)c1"
  Observable: "IC50"
  Observed: "< 0.1 µM"

Need IC50 of O=C(O)c1[nH]nnc1-c1ccc(-c2ccc(Cl)cc2)c(Cl)c1 [Compound 130, 2,2,2-trifluoroacetate] , thanks. < 0.1 µM
